Target: pseudo-kinase domain (JH2, amino-acids 536-812) of human V617F mutant JAK2 (Homo sapiens, UniProt O60674, F794H/V617F/W659A/W777A)
Construct: pseudo-kinase domain (JH2, amino-acids 536-812 with 3 surface mutations W659A, W777A, F794H); His (C)
Sequence (O60674 536-812 V617F/W659A/W777A/F794H): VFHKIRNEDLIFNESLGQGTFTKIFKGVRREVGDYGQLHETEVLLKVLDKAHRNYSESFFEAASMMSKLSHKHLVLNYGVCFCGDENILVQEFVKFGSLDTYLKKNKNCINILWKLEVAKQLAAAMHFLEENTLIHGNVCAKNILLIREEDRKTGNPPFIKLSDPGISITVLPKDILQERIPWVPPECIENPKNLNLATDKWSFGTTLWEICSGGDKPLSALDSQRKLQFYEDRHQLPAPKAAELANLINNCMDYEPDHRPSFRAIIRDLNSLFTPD
Test: JAK2 LanthaScreen JH2-V617F Binding Assay
Conditions: JAK2 JH2-V617F 0.26 nM, 50 nM tracer, 1 hour at 25° C.; read-out: JH2 BIND V617F
ATTRIBUTE MEASURED: IC50

MOLECULE: [2H]C([2H])([2H])n1c(=O)n([C@@H]2CC[C@@H](NC(=O)OC)C2)c2cc(Nc3cc(C)cc(-c4ncc(C(C)(C)O)s4)n3)ncc21
ATTRIBUTE MEASURED: IC50
RESULT: ≤ 10 nM
--
MOLECULE: [2H]C([2H])([2H])n1c(=O)n([C@@H]2CC[C@@H](NC(=O)OC)C2)c2cc(Nc3ccc4c(n3)n(-c3cnn(C(F)F)c3)c(=O)n4CC3(C#N)CC3)ncc21
ATTRIBUTE MEASURED: IC50
RESULT: ≤ 10 nM
--
MOLECULE: [2H]C([2H])([2H])n1c(=O)n([C@@H]2CC[C@]([2H])(NC(=O)OC)C2)c2cc(Nc3cc(C(C)(C)O)cc(-c4ncc(C(F)(F)F)s4)n3)ncc21
ATTRIBUTE MEASURED: IC50
RESULT: ≤ 10 nM
--
MOLECULE: [2H]C([2H])([2H])n1c(=O)n([C@@H]2CC[C@@H](NC(=O)OC)C2)c2cc(Nc3cc(C(=O)N4CCOCC4)c4cccc(C(C)(C)C#N)c4n3)ncc21
ATTRIBUTE MEASURED: IC50
RESULT: ≤ 10 nM
--
MOLECULE: COC(=O)Nc1cc(Nc2cc3c(cn2)n(C)c(=O)n3C2CCC(C)(NC(=O)OC)CC2)cc(-c2cnn(C)c2)c1 (stereo not drawn)
ATTRIBUTE MEASURED: IC50
RESULT: 10 to 100 nM

// returns reported IC50 for input `COC(=O)N[C@@H]1CC[C@@H](n2c(=O)n(C)c3cnc(Nc4ccc5cccc(-c6cnn(C)c6)c5n4)cc32)C1`
10 to 100 nM

// returns reported IC50 for input `[2H]C([2H])([2H])n1c(=O)n([C@@H]2CC[C@@]([2H])(NC(=O)OC)C2)c2cc(Nc3cc(C)cc(-c4ncc(C(C)(C)O)s4)n3)ncc21`
≤ 10 nM

// returns reported IC50 for input `[2H]C([2H])([2H])n1c(=O)n([C@@H]2CC[C@](C)(NC(=O)C3CC3)C2)c2cc(Nc3ccc4nn(CC(C)(C)O)c(-c5cnn(C(F)(F)F)c5)c4n3)ncc21`
≤ 10 nM

// returns reported IC50 for input `COC(=O)N[C@@H]1CC[C@@H](n2c(=O)n(C)c3cnc(Nc4cccc(Oc5ccc6ncccc6c5)n4)cc32)C1`
10 to 100 nM

// returns reported IC50 for input `COC(=O)Nc1cc(Nc2cc3c(cn2)n(C)c(=O)n3[C@@H]2CC[C@@H](NC(=O)OC)C2)cc(-c2cn(C)nn2)c1`
10 to 100 nM

// returns reported IC50 for input `[2H]C([2H])([2H])n1c(=O)n(C23CCC(C(N)=O)(CC2)CC3)c2cc(Nc3cc(C(C)(C)O)cc(-c4ncc(C(F)(F)F)s4)n3)ncc21`
≤ 10 nM

// returns reported IC50 for input `COC(=O)Nc1cc(Nc2cc3c(cn2)n(C)c(=O)n3[C@@H]2CC[C@H](F)C2)cc(-c2cnn(C)c2)c1`
10 to 100 nM
